Reported composite z-score is given for each of the following compounds.
tested on: XIP peptide (Xip251-270); assay: small-molecule binders of XIP peptide, primary screen, biochemical, small-molecule microarray, fluorescence 635/667 nm, 0.5 µg/mL protein (AID 1183); details: small-molecule microarray binding, fluorescence 635 nm; higher = more signal

Known composite z-score results, listed for orientation:
[
  {
    "compound": "O=C1[C@H]2C=C(Br)[C@H](C[C@@H]2c2ccccc2)[C@@]12CO2",
    "result": 0.31
  },
  {
    "compound": "O=C1C2C=CC(C(O)c3ccc(F)cc3)N(Nc3ccccc3F)C2C(=O)N1c1ccccc1 (stereo not drawn)",
    "result": 0.252
  }
]

Shifting focus to the compound that follows.
Lookup result for CN1C(=O)C2C=CC(C(O)c3ccc(-c4ccccc4)s3)N(N(c3ccccc3)c3ccccc3)C2C1=O (stereo not drawn) ; measured composite z-score: 0.322
